Test system: human wild type-CFTR (Homo sapiens, UniProt P13569)
Sequence (P13569 whole entry): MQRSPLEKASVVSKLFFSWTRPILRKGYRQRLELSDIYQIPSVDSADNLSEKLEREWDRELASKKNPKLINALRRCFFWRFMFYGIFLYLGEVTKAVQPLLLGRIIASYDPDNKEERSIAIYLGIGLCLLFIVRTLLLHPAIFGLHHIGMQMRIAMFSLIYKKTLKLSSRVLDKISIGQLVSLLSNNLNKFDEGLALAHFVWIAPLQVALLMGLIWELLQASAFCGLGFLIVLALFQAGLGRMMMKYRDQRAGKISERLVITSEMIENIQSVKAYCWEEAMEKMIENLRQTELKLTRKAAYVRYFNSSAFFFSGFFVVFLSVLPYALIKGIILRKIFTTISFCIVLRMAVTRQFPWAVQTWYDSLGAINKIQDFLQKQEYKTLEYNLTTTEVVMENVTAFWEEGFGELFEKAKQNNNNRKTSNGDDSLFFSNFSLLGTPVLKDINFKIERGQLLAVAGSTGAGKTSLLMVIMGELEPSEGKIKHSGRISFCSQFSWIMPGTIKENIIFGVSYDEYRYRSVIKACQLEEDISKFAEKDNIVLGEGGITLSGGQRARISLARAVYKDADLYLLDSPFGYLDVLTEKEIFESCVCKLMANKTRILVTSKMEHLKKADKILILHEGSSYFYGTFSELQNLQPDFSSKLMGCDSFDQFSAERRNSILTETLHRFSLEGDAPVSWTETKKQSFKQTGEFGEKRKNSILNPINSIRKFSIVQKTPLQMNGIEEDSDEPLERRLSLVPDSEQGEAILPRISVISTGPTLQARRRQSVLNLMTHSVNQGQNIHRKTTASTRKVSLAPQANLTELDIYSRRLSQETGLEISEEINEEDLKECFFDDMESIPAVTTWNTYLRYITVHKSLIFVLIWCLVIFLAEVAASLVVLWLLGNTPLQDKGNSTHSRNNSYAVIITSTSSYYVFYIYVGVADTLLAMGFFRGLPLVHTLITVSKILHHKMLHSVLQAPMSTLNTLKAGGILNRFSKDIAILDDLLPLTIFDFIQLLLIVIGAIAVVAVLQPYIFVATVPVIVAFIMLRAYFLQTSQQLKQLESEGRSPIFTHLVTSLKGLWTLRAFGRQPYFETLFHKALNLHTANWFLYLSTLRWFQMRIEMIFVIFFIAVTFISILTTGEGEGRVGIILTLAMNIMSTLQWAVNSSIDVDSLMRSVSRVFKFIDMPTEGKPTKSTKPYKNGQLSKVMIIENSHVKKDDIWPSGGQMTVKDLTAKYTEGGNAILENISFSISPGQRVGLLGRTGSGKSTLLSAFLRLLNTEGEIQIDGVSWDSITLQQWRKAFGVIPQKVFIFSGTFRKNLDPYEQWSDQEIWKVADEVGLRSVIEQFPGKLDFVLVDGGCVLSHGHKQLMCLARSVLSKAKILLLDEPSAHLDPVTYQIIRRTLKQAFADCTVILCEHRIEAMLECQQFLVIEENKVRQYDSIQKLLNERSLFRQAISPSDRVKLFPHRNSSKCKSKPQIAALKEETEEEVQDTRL
Assay procedure: Short-circuit current measurement
Type: cell-based
Set-up: expressed in transfected cells
Measurement setup: FRT cells expressing human wild type-CFTR; Forskolin 20 μM signal used as 100% activity; read-out: Short-circuit current measurement (EC50) Concentration range
Text: Forskolin (Tocris cat. #1099), CFTRinh-172 (Tocris cat. #3430), amphotericin B (Tocris cat. #6930), dimethyl sulfoxide (Sigma cat. #D4540), EVC4000 Multi-Channel V/I Clamp (World Precision Instruments, Sarasota, FL), PowerLab 4/35 (AD Instruments, Castle Hill, Australia), Labchart Pro 7, GraphPad Prism 5 (GraphPad Software, Inc.). […] Data were collected and analyzed with ADInstruments acquisition software Labchart Pro 7 software. […]
Assay metric: EC50

The examples below pair each entry with its known result.
Compound	EC50
COC(=O)c1ccc(NC(=O)c2cc3nccc(-c4ccc(OC)c(F)c4)n3n2)cc1	≥ 2000 nM
CCOC(=O)CNC(=O)c1ccc(NC(=O)c2cc3nccc(-c4ccc(OC)c(OC)c4)n3n2)cc1	< 200 nM
COC(=O)c1ccc2c(c1)CN(C(=O)c1cc3nccc(-c4ccc(OC)c(OC)c4)n3n1)CC2	< 200 nM
COC(=O)C12CCC(NC(=O)c3cc4nccc(-c5ccc(OC)c(OC)c5)n4n3)(CC1)CC2	< 200 nM
COc1ccc(-c2ccnc3cc(C(=O)Nc4ccc(C(=O)O)cn4)nn23)cc1OC	200 to 2000 nM
COc1ccc(-c2ccnc3cc(C(=O)Nc4ccc(O)cc4)nn23)cc1OC	< 200 nM
COc1ccc(-c2ccnc3cc(C(=O)Nc4ccc(C(=O)N5CCOCC5)cn4)nn23)cc1OC	< 200 nM
COc1ccc(NC(=O)c2cc3nccc(-c4ccc(OC)c(OC)c4)n3n2)cc1	< 200 nM

Lab book: EC50 of `COc1ccc(-c2ccnc3cc(C(=O)Nc4ccc(N)cc4)nn23)cc1OC` noted as 200 to 2000 nM

`COc1ccc(-c2ccnc3cc(C(=O)N[C@H]4CC[C@@H](C(=O)N5CCOCC5)CC4)nn23)cc1OC` yielded EC50 of ≥ 2000 nM

Looking up `COc1ccc(-c2ccnc3cc(C(=O)Nc4ccc(C(=O)N[C@H](C(=O)N5CCOCC5)C(C)C)cc4)nn23)cc1OC` , I found its EC50 recorded as < 200 nM

Sample CCOC(=O)N1CCN(C(=O)c2cc3nccc(-c4ccc(OC)c(OC)c4)n3n2)CC1 [Compound 111] ; EC50 observed: ≥ 2000 nM

Sample `COc1ccc(-c2ccnc3cc(C(=O)NC4CCCCC4)nn23)cc1OC` ; EC50 observed: 200 to 2000 nM

Value of measured EC50 for the entry `COc1ccc(-c2ccnc3cc(C(=O)Nc4ccccn4)nn23)cc1OC` : < 200 nM

// sample `COc1ccc(-c2ccnc3cc(C(=O)Nc4ccc(C(=O)N5CCN(C)CC5)cc4F)nn23)cc1OC` , its EC50 was < 200 nM

For `COC(=O)c1ccc2c(c1)N(C(=O)c1cc3nccc(-c4ccc(OC)c(OC)c4)n3n1)CC2` the compound record lists EC50 as 200 to 2000 nM

----------
Test system: human wild type-CFTR (Homo sapiens, UniProt P13569)
Assay procedure: Cell-based YFP assay
Set-up: expressed in transfected cells; host or cells: CHO-K1 (Chinese hamster ovary)
Measurement setup: CHO-K1 cells expressing human wild type-CFTR and YFP-H148Q/I152L; forskolin 20 μM = 100% activity; read-out: Cell-based YFP Assay (EC50) Concentration Range
Each entry below carries its reported EC50.

Below: 2 molecules and their reported EC50.
Molecule	Assay metric	Result
COc1ccc(-c2ccnc3cc(C(=O)Nc4ccc(C(=O)NCCCN(C)C)cc4)nn23)cc1OC [Compound 220]	EC50	≥ 2000 nM
CCCOC(=O)c1ccc(NC(=O)c2cc3nccc(-c4ccc(OC)c(OC)c4)n3n2)cc1 [Compound 335]	EC50	< 200 nM

The molecule COc1ccc(-c2ccnc3cc(C(=O)N4CCCc5cc(C(=O)N6CCOCC6)ccc54)nn23)cc1OC [Compound 236] showed EC50 equal to ≥ 2000 nM

// COC(=O)[C@H](CO)NC(=O)c1ccc(NC(=O)c2cc3nccc(-c4ccc(OC)c(OC)c4)n3n2)cc1 [Compound 43] : EC50 value = < 200 nM

For record COc1ccc(-c2ccnc3cc(C(=O)Nc4ccc(N5CCN(C(=O)OC(C)(C)C)CC5)cn4)nn23)cc1OC [Compound 272] the listed EC50 is < 200 nM

Lab note: CCOc1ccc(NC(=O)c2cc3nccc(-c4ccc(OC)nc4)n3n2)cc1 [Compound 323] gave EC50 of ≥ 2000 nM

So for COc1ccc(-c2ccnc3cc(NC(=O)Nc4ccc(C(=O)O)cc4)nn23)cc1OC [Compound 107] , the logged EC50 turned out to be ≥ 2000 nM

The molecule listed as CCOC(=O)c1ccc(NC(=O)c2cc3nccc(-c4ccc(OC)c(OC)c4)n3n2)cc1 [Compound 334] has a reported EC50 of < 200 nM
